- Test system: EGFR Del19/T790M/C797S (BaF3-DTC cells)
- PROTOCOL TEXT: EGFR degradation HTRF assay, BaF3-DTC cells
- Assay type: cell-based
- CONDITION PARAMETERS: 16h treatment, maximum percentage of degradation
Label criterion met when DTC Dmax (%) is at or above 90%; otherwise label criterion not met.

Ask | Is it the case that CCc1cc(Nc2ncc(Br)c(Nc3ccc4nccnc4c3P(C)(C)=O)n2)c(OC)cc1N1CCC(N2CCN(C(=O)CC3CN(c4ccc5c(c4)C(=O)N(C4CCC(=O)NC4=O)C5=O)C3)CC2)CC1 (stereo not shown) has DTC Dmax (%) reaching or exceeding 90%?
Reply | criterion not met

Ask | Answer whether DTC Dmax (%) of CCc1cc(Nc2ncc(Br)c(Nc3ccc4nccnc4c3P(C)(C)=O)n2)c(OC)cc1N1CCC(N2CCN(C(=O)C3CCN(c4ccc5nn(C6CCC(=O)NC6=O)cc5c4)CC3)CC2)CC1 (stereo not shown) is greater than or equal to 90%.
Reply | criterion met

Ask | Say whether CCc1cc(Nc2ncc(Br)c(Nc3ccc4nccnc4c3P(C)(C)=O)n2)c(OC)cc1N1CCC(N2CCN(CCc3ccc(C4(C)CCC(=O)NC4=O)cc3)CC2)CC1 (stereo not shown) shows DTC Dmax (%) of 90% or more.
Reply | criterion not met

Ask | Given CP(C)(=O)c1c(Nc2nc(Nc3ccc(N4CCN(C5CN(CC6CN(c7ccc8c(c7)C(=O)N(C7CCC(=O)NC7=O)C8=O)C6)C5)CC4)c(F)c3)ncc2Br)ccc2nccnc12 (stereo not shown) , state whether its DTC Dmax (%) is at least 90%.
Reply | criterion met

Ask | Confirm if DTC Dmax (%) reported for the compound COc1cc(N2CCN(C3CN(C(=O)c4cnc(C(=O)Nc5ccc(C6CCC(=O)NC6=O)cc5)cn4)C3)CC2)c(C)cc1Nc1ncc(Br)c(Nc2ccc3nccnc3c2P(C)(C)=O)n1 (stereo not shown) is 90% or above.
Reply | criterion not met

Ask | Check the entry COc1cc(N2CCC(N3CCN(CCc4cc(F)c(C5CCC(=O)NC5=O)c(F)c4)CC3)CC2)c(C(C)O)cc1Nc1ncc(Br)c(Nc2ccc3nccnc3c2P(C)(C)=O)n1 (stereo not shown) : does DTC Dmax (%) equal or exceed 90%?
Reply | criterion met
